# test_details: Righting reflex experiment on mice
# measurement_context: both, ICR, mouse, in vivo, intravenous
measured_metric: MTD (mg/kg)
One number for each entry, in mg/kg.

For orientation, consider the following solved cases.
compound: CC[C@@H](C)c1cccc([C@@H](C)C2CC2)c1O
units_text: mg/kg
MTD: 40
//
compound: CC(C)c1cccc(C(C)C2CC2)c1O (stereo not shown)
units_text: mg/kg
MTD: 10
//
compound: C[C@@H](c1cccc([C@H](C)C2CC2)c1O)C1CC1 [Compound 18, 2,6-bis[(1R)-1-cyclopropylethyl]phenol]
units_text: mg/kg
MTD: 20

So what does the record say about MTD for C[C@H](c1cccc([C@H](C)C2CC2)c1O)C1CC1 ? 5

* * *

# test_details: Righting reflex experiment on mice with prodrugs
# Format: in vivo
# measurement_context: both sexes, ICR, mouse, in vivo; mice, intravenous injection, prodrugs in physiological saline
Counter-ions that a name gives are not always drawn.
Answer each item with its documented LD50.
One number for each entry, in mg/kg.

Worked examples, 3 compounds total:
compound: CC(C)c1cccc([C@H](C)C2CC2)c1OCOP(=O)([O-])[O-].[Na+].[Na+]
LD50 [mg/kg]: 86.2
//
compound: CC(C)c1cccc([C@H](C)C2CC2)c1OCOP(=O)(OCOC(=O)C(C)(C)C)OCOC(=O)C(C)(C)C
LD50 [mg/kg]: 200
//
compound: CC(C)C[C@H](N)C(=O)OCOc1c(C(C)C)cccc1[C@H](C)C1CC1 [Compound 60, trifluoroacetate]
LD50 [mg/kg]: 79.6

Quick one: give me LD50 for each item below, same order please.
1. CC(C)c1cccc([C@@H](C)C2CC2)c1OCOP(=O)([O-])[O-].[Na+].[Na+]
2. C[C@H](c1cccc([C@H](C)C2CC2)c1OCOP(=O)(O)O)C1CC1 [Compound 76, phosphate]

1: 370; 2: 143

* * *

# test_details: Efficacy experiment on rats with prodrugs
# Assay type: in vivo
# measurement_context: both sexes, Sprague-Dawley, rat, in vivo, intravenous; SD rats
measured_metric: MTD (mg/kg)
Numbers only, in mg/kg.

Please review the entries below; each comes with its answer.
molecule: CC(C)c1cccc(C(C)C)c1O [Propofol, reference compound]
units_text: mg/kg
MTD: 12.5

molecule: CC(C)c1cccc([C@H](C)C2CC2)c1OCOC(=O)[C@H](Cc1ccccc1)NC(=O)OC(C)(C)C
units_text: mg/kg
MTD: 40

Please find the next molecule below.
Can you look up the measured MTD of CC(C)c1cccc([C@H](C)C2CC2)c1OCOP(=O)([O-])[O-].[Na+].[Na+] for me? 30

* * *

Provide the reported Anesthesia induction time of each item.
# Tested on: ICR mice
# test_details: Righting reflex experiment on mice with prodrugs
# Format: in vivo
# measurement_context: mice, intravenous injection, prodrugs
# Experimental: After adapting to the laboratory environment, the SPF-grade ICR mice were fasted for 12 hours.
Give bare numbers, in s.

Past entries and their recorded results:
molecule: CC(C)c1cccc([C@H](C)C2CC2)c1OCOC(=O)c1cccnc1
measured_metric: Anesthesia induction time
val: 159.0

molecule: CC(C)c1cccc([C@H](C)C2CC2)c1OCOC(=O)C(NC(=O)OC(C)(C)C)C(C)C (stereo in doubt)
measured_metric: Anesthesia induction time
val: 135.8

molecule: CC(C)c1cccc([C@H](C)C2CC2)c1OCOP(=O)([O-])[O-].[Na+].[Na+]
measured_metric: Anesthesia induction time
val: 73.0

molecule: CC(C)c1cccc([C@H](C)C2CCC2)c1OCOP(=O)([O-])[O-].[Na+].[Na+]
measured_metric: Anesthesia induction time
val: 96.5

Given CC(=O)Oc1ccccc1C(=O)OCOc1c(C(C)C)cccc1[C@H](C)C1CC1 , state its recorded Anesthesia induction time. 141.0
